Assign half-life at 2 mg/mL freebase psilocin to each entry below.
experiment: Forced degradation of psilocin salts, oxidative (0.30% H2O2); details: 0.30% H2O2 (oxidative forced degradation), half-life, 0.30% H2O2, RT

Asked: Reported half-life at 2 mg/mL freebase psilocin for CN(C)CCc1c[nH]c2cccc(O)c12.Cl [Compound 9a] : what is it?
Given back: > 167 h

Asked: Bench note: what half-life at 2 mg/mL freebase psilocin did CN(C)CCc1c[nH]c2cccc(O)c12.O=C(O)C(F)(F)F [Compound 9f] show?
Given back: 33.3 h

Asked: Entry CN(C)CCc1c[nH]c2cccc(O)c12.O=C(O)c1ccccc1 [Compound 9c] : reported half-life at 2 mg/mL freebase psilocin = ?
Given back: > 167 h

====

assay: Forced degradation of psilocin salts, acid (1.0 M HCl); details: 1.0 M HCl, after 24 h compared with first measuring point at 1 h, LCMS
Give % psilocin remaining for every item shown.
Record the result as a number with its unit.

Asked: Name the reported % psilocin remaining value associated with the compound CN(C)CCc1c[nH]c2cccc(O)c12.O=C(O)C(F)(F)F [Compound 9f]
Given back: 99%

Asked: Item CN(C)CCc1c[nH]c2cccc(O)c12.O=P(O)(O)O [Compound 9e] has what recorded % psilocin remaining?
Given back: 94%

Asked: Return reported % psilocin remaining; argument: CN(C)CCc1c[nH]c2cccc(O)c12.O=C(O)c1ccccc1 [Compound 9c]
Given back: 100%

Asked: Find the recorded % psilocin remaining belonging to CN(C)CCc1c[nH]c2cccc(O)c12.OB(O)O [Compound 9b] and report it.
Given back: 93%

Asked: Which % psilocin remaining value belongs to CN(C)CCc1c[nH]c2cccc(O)c12.Cl [Compound 9a] ?
Given back: 100%

====

Exercise: for every item that follows, state its recorded half-life at 5 mM.
assay: Chemical stability in 1.0 M NaHCO3 and 1.0 M HCl; settings: 1.0 M NaHCO3

Asked: # input molecule: CN(C)CCc1c[nH]c2cccc(OCc3ccccc3)c12 ; wanted: its half-life at 5 mM
Given back: > 167 h

Asked: For the molecule CN(C)CCc1c[nH]c2cccc(OS(=O)(=O)O)c12 , what half-life at 5 mM is on record?
Given back: > 167 h

Asked: Would you mind telling me what half-life at 5 mM value was observed for CN(C)CCc1c[nH]c2cccc(OB(O)O)c12.O=C(O)/C=C/C(=O)O ?
Given back: < 0.0833 h

Asked: Sample CN(C)CCc1c[nH]c2cccc(OC(=O)N3CCCCC3)c12.O=C(O)/C=C/C(=O)O — what was its half-life at 5 mM?
Given back: > 167 h

====

assay: Plasma stability in human plasma; assay type: in vitro ADME; conditions: human, pooled human plasma; 120 min
Readout Type: remaining at 2 h, 1 μM (%)
Report as a plain number; the unit % is understood.

Asked: Recorded remaining at 2 h, 1 μM of CCOC(=O)Oc1cccc2[nH]cc(CCN(C)C)c12.O=C(O)/C=C/C(=O)O [Compound 4i] , please.
Given back: 0

Asked: Can you look up the measured remaining at 2 h, 1 μM of CN(C)CCc1c[nH]c2cccc(OC(=O)C3CC3)c12.O=C(O)/C=C/C(=O)O [Compound 4g] for me?
Given back: 0

Asked: Need remaining at 2 h, 1 μM, item CC(=O)Oc1cccc2[nH]cc(CCN(C)C)c12.O=C(O)/C=C/C(=O)O [Compound 4a, 4-acetoxy-N,N-dimethyltryptamine]
Given back: 0.1

Asked: Which remaining at 2 h, 1 μM value is on record for CN(C)CCc1c[nH]c2cccc(OP(=O)(O)O)c12 [Compound 8, 4-phosphoryloxy-N,N-dimethyltryptamine, reference compound] ?
Given back: 127

Asked: Name the recorded remaining at 2 h, 1 μM for CN(C)CCc1c[nH]c2cccc(OCc3ccccc3)c12 [Compound 3, 4-Benzyloxy-N,N-dimethyltryptamine] .
Given back: 110

====

system: porcine liver esterase; experiment: Stability in FaSSIF supplemented with esterase; settings: after 1 min at 20 IU/mL
Field: label. Allowed values: fulfilled (% prodrug remaining, measured after 1 min < 30%) or not fulfilled (% prodrug remaining, measured after 1 min >= 30%).

Asked: Check if % prodrug remaining, measured after 1 min falls below 30% for CC(C)COC(=O)Oc1cccc2[nH]cc(CCN(C)C)c12.O=CO .
Given back: fulfilled

Asked: Given the entry CCOC(=O)Oc1cccc2[nH]cc(CCN(C)C)c12.O=C(O)/C=C/C(=O)O , would its reported % prodrug remaining, measured after 1 min be below 30%?
Given back: fulfilled

Asked: Identify whether the compound CN(C)CCc1c[nH]c2cccc(OC(=O)OCc3ccccc3)c12.O=C(O)/C=C/C(=O)O.O=CO records % prodrug remaining, measured after 1 min below 30%.
Given back: fulfilled

Asked: Threshold test, % prodrug remaining, measured after 1 min < 30%: COC(=O)Oc1cccc2[nH]cc(CCN(C)C)c12.O=C(O)/C=C/C(=O)O
Given back: not fulfilled

Asked: Take the compound CN(C)CCc1c[nH]c2cccc(OC(=O)C3CC3)c12.O=C(O)/C=C/C(=O)O and say whether its % prodrug remaining, measured after 1 min is less than 30%.
Given back: not fulfilled

Asked: Determine whether this compound shows % prodrug remaining, measured after 1 min lower than 30% (ties excluded): CC(=O)Oc1cccc2[nH]cc(CCN(C)C)c12.O=C(O)/C=C/C(=O)O
Given back: not fulfilled

====

test system: porcine liver esterase; assay: Stability in FaSSIF supplemented with esterase; conditions: at 270 IU/mL
Rule: predicted half-life below 2 s gives Met. Equal to or above 2 s gives Not met.

Asked: Quick check: predicted half-life of CN(C)CCc1c[nH]c2cccc(OC(=O)C3CC3)c12.O=C(O)/C=C/C(=O)O under 2 s?
Given back: Not met

Asked: Just wondering, is predicted half-life of CCOC(=O)Oc1cccc2[nH]cc(CCN(C)C)c12.O=C(O)/C=C/C(=O)O below 2 s?
Given back: Not met

Asked: Find out if reported predicted half-life for COC(=O)Oc1cccc2[nH]cc(CCN(C)C)c12.O=C(O)/C=C/C(=O)O is less than 2 s
Given back: Not met

Asked: Given the entry CC(C)COC(=O)Oc1cccc2[nH]cc(CCN(C)C)c12.O=CO , would its reported predicted half-life be below 2 s?
Given back: Met

Asked: Here's an entry: CN(C)CCc1c[nH]c2cccc(OC(=O)OCc3ccccc3)c12.O=C(O)/C=C/C(=O)O.O=CO . Is its predicted half-life below 2 s?
Given back: Met

Asked: Quick check: predicted half-life of CC(=O)Oc1cccc2[nH]cc(CCN(C)C)c12.O=C(O)/C=C/C(=O)O under 2 s?
Given back: Not met

====

assay: Plasma stability in human plasma; format: in vitro ADME; settings: human, pooled human plasma; 1 μM, 37 °C; read-out: T ½ in human plasma
Could you please report measured half-life at 1 μM for the items listed next?

Asked: Record request: half-life at 1 μM value, item CN(C)CCc1c[nH]c2cccc(OC(=O)C3CC3)c12.O=C(O)/C=C/C(=O)O
Given back: < 5 min

Asked: Which measured half-life at 1 μM value corresponds to CC(=O)Oc1cccc2[nH]cc(CCN(C)C)c12.O=C(O)/C=C/C(=O)O ?
Given back: < 5 min

Asked: Recorded half-life at 1 μM of CN(C)CCc1c[nH]c2cccc(OP(=O)(O)O)c12 [Compound 8, 4-phosphoryloxy-N,N-dimethyltryptamine, reference compound] , please.
Given back: > 480 min

Asked: Quick one: half-life at 1 μM for CN(C)CCc1c[nH]c2cccc(OCc3ccccc3)c12 ?
Given back: > 480 min

Asked: Give its half-life at 1 μM value. Item: CCOC(=O)Oc1cccc2[nH]cc(CCN(C)C)c12.O=C(O)/C=C/C(=O)O
Given back: < 5 min

====

assay: Plasma stability in human plasma; assay type: in vitro ADME; settings: human, pooled human plasma; 60 min
Readout Type: remaining at 1 h, 1 μM (%)
Numeric only. Scale: %

Asked: I would be grateful if you could share the reported remaining at 1 h, 1 μM for CCOC(=O)Oc1cccc2[nH]cc(CCN(C)C)c12.O=C(O)/C=C/C(=O)O .
Given back: 0

Asked: Entry CN(C)CCc1c[nH]c2cccc(OCc3ccccc3)c12 : reported remaining at 1 h, 1 μM = ?
Given back: 111

Asked: Can you look up the measured remaining at 1 h, 1 μM of CN(C)CCc1c[nH]c2cccc(OC(=O)C3CC3)c12.O=C(O)/C=C/C(=O)O for me?
Given back: 0

Asked: Can you look up the measured remaining at 1 h, 1 μM of CC(=O)Oc1cccc2[nH]cc(CCN(C)C)c12.O=C(O)/C=C/C(=O)O for me?
Given back: 0.2

Asked: Recorded remaining at 1 h, 1 μM of CN(C)CCc1c[nH]c2cccc(OP(=O)(O)O)c12 [Compound 8, 4-phosphoryloxy-N,N-dimethyltryptamine, reference compound] , please.
Given back: 122

====

Field: half-life at 24 h, 2 mg/mL freebase psilocin. Provide a value for each of the compounds that follow.
assay: Forced degradation of psilocin salts, base (0.10 M NaOH); conditions: 0.10 M NaOH (base forced degradation)
Just the number in h, nothing appended.

Asked: Please give the measured half-life at 24 h, 2 mg/mL freebase psilocin for this compound: CN(C)CCc1c[nH]c2cccc(O)c12.Cl [Compound 9a]
Given back: 8.33

Asked: What measured half-life at 24 h, 2 mg/mL freebase psilocin goes with CN(C)CCc1c[nH]c2cccc(O)c12.O=P(O)(O)O [Compound 9e] ?
Given back: 5

Asked: Fill in: half-life at 24 h, 2 mg/mL freebase psilocin of CN(C)CCc1c[nH]c2cccc(O)c12.O=C(O)C(F)(F)F [Compound 9f] is ___
Given back: 15

Asked: Item CN(C)CCc1c[nH]c2cccc(O)c12.O=C(O)c1ccccc1 [Compound 9c] has what recorded half-life at 24 h, 2 mg/mL freebase psilocin?
Given back: 8.33
